- target_or_system: T1, human GIP receptor (human, UniProt P48546 22-466)
- T1 sequence (looked up): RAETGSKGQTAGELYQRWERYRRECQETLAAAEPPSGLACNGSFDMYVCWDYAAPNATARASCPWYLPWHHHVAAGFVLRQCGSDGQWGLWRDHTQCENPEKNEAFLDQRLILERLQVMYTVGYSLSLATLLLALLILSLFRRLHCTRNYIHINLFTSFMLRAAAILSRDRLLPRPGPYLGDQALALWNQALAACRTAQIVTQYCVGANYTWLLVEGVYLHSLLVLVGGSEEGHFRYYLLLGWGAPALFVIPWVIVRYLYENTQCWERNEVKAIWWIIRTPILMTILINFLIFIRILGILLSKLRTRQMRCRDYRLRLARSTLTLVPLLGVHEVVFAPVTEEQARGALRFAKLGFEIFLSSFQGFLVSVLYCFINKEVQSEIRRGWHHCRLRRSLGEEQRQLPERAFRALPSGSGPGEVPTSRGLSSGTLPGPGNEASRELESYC
- assay: cell-based or functional assay
Starred links: 1 amine or outer side, 2 acyl side, 3 side chain; linkers in the order of their positions; H or OH if unused. Non-standard residues stand in square brackets, D forms with d. Groups on a side chain read outwards from the residue. No end group written: not given here. *: point of attachment. C18 diacid = O=C(O)CCCCCCCCCCCCCCCCC(=O)*; γGlu = O=C(O)[C@H](CCC(=O)[*:2])N[*:1]; AEEA = NCCOCCOCC(=O)O; Aib = CC(C)(N)C(=O)O
reported_property: EC50 CreLuc hGIPR 0.5% hP
Reply with the number and its unit after it.

Some binders with known EC50 CreLuc hGIPR 0.5% hP results, for comparison:
* YXEGTFTSDYSIXLEKQAQXAFVEWLIKGGQSSGASLRHYYNWLTRQRY (Aib at 2, 13, 20; K28 side chain: C20DA-gGlu-gGlu-gGlu-gGlu-gGlu-gGlu-eLys; C-terminal NH2) [Compound 123] | 0.42 nM
* YXEGTFTSDYSIXLEKQAQXAFVEWLIKGGPSSPASLRHYYNWLTRQRY (Aib at 2, 13, 20; K28 side chain: C18DA-gGlu-gGlu-gGlu-gGlu-gGlu-OEG-OEG; C-terminal NH2) [Compound 140] | 0.22 nM
* Y[Aib]EGTFTSDYSI[Aib]LEKQAQ[Aib]AFVEWLIK([AEEA-AEEA-γGlu-γGlu-γGlu-γGlu-C18 diacid])GGPEEPASLRHYYNWLTRQRY-NH2 [Compound 161] | 0.14 nM

Ask: Find the recorded EC50 CreLuc hGIPR 0.5% hP belonging to YXEGTFTSDYSIXLEKQAQXAFVEWLIKGGPSSGATLRHYYNWLTRQRY (Aib at 2, 13, 20; K28 side chain: C20DA-gGlu-gGlu-gGlu-gGlu-gGlu-gGlu-eLys; C-terminal NH2) [Compound 91] and report it.
Reply: 0.21 nM

Ask: Find the recorded EC50 CreLuc hGIPR 0.5% hP belonging to YXEGTFTSDYSIXLEKQAQXAFVEWLIKGGPRSGASLRHYYNWLTRQRY (Aib at 2, 13, 20; K28 side chain: C20DA-gGlu-gGlu-gGlu-gGlu-gGlu-gGlu-eLys; C-terminal NH2) [Compound 168] and report it.
Reply: 0.2 nM

Ask: Find the recorded EC50 CreLuc hGIPR 0.5% hP belonging to YXEGTFTSDYSIXLEKQAQXAFVEWLIKGGPSSGESLRHYYNWLTRQRY (Aib at 2, 13, 20; K28 side chain: C20DA-gGlu-gGlu-gGlu-gGlu-gGlu-gGlu-eLys; C-terminal NH2) [Compound 127] and report it.
Reply: 0.05 nM

Data origin: patent US20240247080A1
